Test system: Vero E6 infected with SARS-CoV-2
Assay: SARS-CoV-2 infection rate relative to infected DMSO; higher = more infection, active = 60 or less
Conditions: 24 h
Hi there, I'd appreciate the recorded SARS-CoV-2 infection rate for every entry that follows.
Quick note: give the figure in %, leave out the unit.

Send back Vero E6 infected with SARS-CoV-2 SARS-CoV-2 infection rate of CC(C)(C)CCN1C[C@@H]2[C@@H](CNC(=O)c3cc(Cl)cc(Cl)c3)[C@@H]2C1 (10 µM) only.
86

// fetch SARS-CoV-2 infection rate; item: O=C(O)C1=CCCNC1 [guvacine] (10 µM) ; system: Vero E6 infected with SARS-CoV-2
93

Please respond with reported SARS-CoV-2 infection rate (system Vero E6 infected with SARS-CoV-2) for CCCCCCCCCCCCCCCCCCCCCCCCC(=O)O [pentacosanoic-acid] (10 µM) .
96

Report value: SARS-CoV-2 infection rate, system: Vero E6 infected with SARS-CoV-2, molecule: O=C(NNc1nc2cc(F)ccc2n2cccc12)c1cnccn1 (10 µM)
105

Give the observed SARS-CoV-2 infection rate of C[Se]C[C@H](N)C(=O)O [Se-methylselenocysteine] (10 µM) for Vero E6 infected with SARS-CoV-2.
102

* * *

Kindly state morphology score for each of the entries shown.
System: Vero E6 infected with SARS-CoV-2
Experiment: morphology score (similarity to uninfected cells); higher = more like uninfected cells
Conditions: 24 h
Reply briefly: the number, and no unit.

Consider the compound CCCNC(C)C(=O)Nc1ccccc1C (stereo not drawn) [prilocaine] (10 µM) and give its recorded morphology score.
-0.208

Give morphology score for the following compound: N#Cc1ccc(Oc2ccc3c(c2)COB3O)cc1 [crisaborole] (10 µM)
0.0741

Let me know recorded morphology score for O=c1[nH]c2ccccc2n1CCCN1CCC(n2c(=O)[nH]c3cc(Cl)ccc32)CC1 [domperidone] (10 µM) , thanks.
0.00154

Kindly indicate its recorded morphology score. Item: CCCN(CCC)C(=O)C(CCC(=O)O)NC(=O)c1ccccc1 (stereo not drawn) [proglumide] (10 µM)
0.0817

Identify morphology score associated with the compound Nc1ncc2c(n1)CC(c1ccco1)CC2=O (stereo not drawn) (10 µM)
0.0161

Give recorded morphology score. CCOc1ccccc1C(N)=O [ethenzamide] (10 µM)
-0.0139

Read the entry CO[C@@H]1[C@@H](OC(N)=O)[C@@H](O)[C@H](Oc2ccc3c(O)c(NC(=O)c4ccc(O)c(CC=C(C)C)c4)c(=O)oc3c2C)OC1(C)C [novobiocin] (10 µM) and write its reported morphology score.
0.165

Read the entry CCCN(CCC)C(=O)C(CCC(=O)OCCCN1CCN(CCOC(=O)Cc2c(C)n(C(=O)c3ccc(Cl)cc3)c3ccc(OC)cc23)CC1)NC(=O)c1ccccc1 (stereo not drawn) [proglumetacin] (10 µM) and write its reported morphology score.
0.0923

Name the recorded morphology score of the item Cn1ncc2c(N3CCOCC3)nc(-c3cccc(O)c3)nc21 (10 µM) in your answer.
-0.103

Please give the documented morphology score of O=C(O)CCC(=O)c1ccc(-c2ccccc2)cc1 [fenbufen] (10 µM)
-0.0471

Return morphology score for the following compound: O=C(NCCCN1CCCCCC1)C(c1ccccc1)C1CCCCC1 (stereo not drawn) (10 µM)
0.404

Give the reported morphology score for this compound. CC(C)(CO)CCCCCCC(C)(C)CO [gemcadiol] (10 µM)
0.124

Determine from records and report morphology score for C[C@]12CCC(=O)C=C1CC[C@@H]1[C@@H]2CC[C@@]2(C)[C@H]1CC[C@]2(O)C(=O)CO [cortodoxone] (10 µM)
0.0341

Note morphology score for the compound shown: Cn1c(=O)c2c(ncn2C)n(C)c1=O [caffeine] (10 µM)
-0.174

Give a short answer stating reported morphology score for O=C(O)C1CN(Cc2ccc(-c3nc4cc(Cc5ccccc5F)ccc4s3)c(F)c2)C1 (10 µM) .
-0.0698

Please give the documented morphology score of COCC[n+]1c2c(n(Cc3cnccn3)c1C)C(=O)c1ccccc1C2=O (0.833333 µM)
0.0783

Quickly give me recorded morphology score for CN1[C@H]2C[C@H](OC(=O)[C@H](CO)c3ccccc3)C[C@@H]1[C@@H](O)C2 [anisodamine] (10 µM)
-0.00951

Return reported morphology score. Input compound: CN1C2CCC1CC(OC(c1ccccc1)c1ccc(Cl)cc1)C2 (stereo not drawn) (0.833333 µM)
0.251

Return morphology score for the following compound: CN1CCC(COc2cnc(-c3cccc(Cn4nc(-c5cccc(C#N)c5)ccc4=O)c3)nc2)CC1 (10 µM)
0.207

Please list morphology score recorded for the compound CC(=O)OC[C@H]1O[C@@H]([S-])[C@H](OC(C)=O)[C@@H](OC(C)=O)[C@@H]1OC(C)=O.CCP(CC)CC.[Au+] [auranofin] (0.833333 µM)
0.3

Specify measured morphology score for Cc1ccc(CC2(O)CCN(CCOc3ccc(O)cc3)CC2)cc1 (10 µM) .
-0.0871

Fill in morphology score for record CC(=O)OCC1=C(C(=O)O)N2C(=O)[C@@H](NC(=O)CCCC(N)C(=O)O)C2SC1 (stereo partly drawn) [cephalosporin-c-zn] (10 µM)
0.00489

Note morphology score for the compound shown: O=C(O)c1cnn(-c2nc3cc(OC(F)(F)F)c(Cl)cc3[nH]2)c1 (10 µM)
0.316

Tell me measured morphology score for COc1ccc(CCO[C@@H]2CCCC[C@H]2N2CC[C@@H](O)C2)cc1OC [vernakalant] (10 µM) please.
0.109

Tell me morphology score reported for N[C@@H](C(=O)O)c1nn[nH]n1 (racemic) [tetrazol-5-yl-glycine-(RS)] (10 µM)
0.03

Read off the recorded morphology score for c1ccc(-c2n[nH]cc2-c2ccnc3ccccc23)nc1 (10 µM)
-0.0555

Look up and state reported morphology score for CC(C)Oc1ccc(-c2nc(-c3cccc4c3CC[C@@H]4NCCO)no2)cc1C#N [ozanimod] (0.833333 µM)
0.262

Dear colleague, please send me the reported morphology score for CN[C@@H]1[C@H](O)[C@H](NC)[C@H]2O[C@@]3(O)C(=O)C[C@@H](C)O[C@H]3O[C@@H]2[C@H]1O [spectinomycin] (0.833333 µM) when you can.
0.0353

Note morphology score for the compound shown: CC(C)[C@H]1CC[C@H](C(=O)N[C@H](Cc2ccccc2)C(=O)O)CC1 [nateglinide] (10 µM)
0.0232

Tell me its morphology score given Cc1ccccc1N1CCN(CCc2nnc3n2CCCC3)CC1 [dapiprazole] (10 µM) as the entry.
0.109

Could you please provide reported morphology score for Cc1nc2c([nH]1)-c1ccccc1N(C(=O)c1ccc(NC(=O)c3ccccc3-c3ccccc3)cc1)CC2 [conivaptan] (10 µM) ? Thanks!
0.193

Provide one value: measured morphology score of CCCCCCCCCCCCCCSCC(=O)O [tetradecylthioacetic-acid] (10 µM)
-0.0649

Give recorded morphology score. COc1cc(NC(=O)c2ccc(-c3ccc(Cl)cc3)o2)cc(OC)c1 (10 µM)
0.0298

* * *

Kindly state inhibition of SARS-CoV-2 cytopathic effect for each of the entries shown.
System: Vero E6 infected with SARS-CoV-2
Assay: inhibition of SARS-CoV-2 cytopathic effect; higher = more antiviral protection, active = above 15
Details: 1 nM; 48 h
Note: unit % is implicit; provide only the numeric part.

Name the recorded inhibition of SARS-CoV-2 cytopathic effect of the compound listed here: `CCCc1nc(C)c2c(=O)nc(-c3cc(S(=O)(=O)N4CCN(CC)CC4)ccc3OCC)[nH]n12`
-1.45

Give reported inhibition of SARS-CoV-2 cytopathic effect value for `Oc1ccc2c(c1)CC[C@H](c1ccccc1)[C@@H]2c1ccc(OCCN2CCCC2)cc1`
-1.63

Specify reported inhibition of SARS-CoV-2 cytopathic effect for the compound shown: CN[C@@H](C)CCC=C(C)C [isometheptene-mucate]
-0.09

Note inhibition of SARS-CoV-2 cytopathic effect for the compound shown: `CN(C)CCCCC(=O)Nc1ccc(NC(=S)NC(=O)c2ccc(C(C)(C)C)cc2)cc1`
-2.53

For the compound O=C(NC(NC(=S)Nc1ccc(F)c([N+](=O)[O-])c1)C(Cl)(Cl)Cl)C(c1ccccc1)c1ccccc1 (stereo not drawn) , report inhibition of SARS-CoV-2 cytopathic effect.
-2.82

Item `Cn1cc(-c2ccc3nnc(C(F)(F)c4ccc5ncccc5c4)n3n2)cn1` : provide inhibition of SARS-CoV-2 cytopathic effect
0.45

# return recorded inhibition of SARS-CoV-2 cytopathic effect for entry `O=[N+]([O-])c1cc([As](=O)(O)O)ccc1O`
-3.44

Indicate the recorded inhibition of SARS-CoV-2 cytopathic effect value for this compound: C[N+](C)(C)CC[N+]1(C)Cc2c(Cl)c(Cl)c(Cl)c(Cl)c2C1 [chlorisondamine-diiodide]
0.2

Please report inhibition of SARS-CoV-2 cytopathic effect for the following compound: `CCCCCCCCCCCCCC[C@@H](O)[C@@H](O)[C@@H](N)CO`
-6.1

Consider the compound `Cc1ccc(-c2cn3c4c(sc3n2)CCCC4)cc1` and give its recorded inhibition of SARS-CoV-2 cytopathic effect.
-1.71

Input `CN1CCN(CCOc2cc(OC3CCOCC3)c3c(Nc4c(Cl)ccc5c4OCO5)ncnc3c2)CC1` , output reported inhibition of SARS-CoV-2 cytopathic effect.
0.37

Provide one value: measured inhibition of SARS-CoV-2 cytopathic effect of `CC(C)(C)c1[nH]cnc1/C=c1\[nH]c(=O)/c(=C/c2ccccc2)[nH]c1=O`
0.88

Output inhibition of SARS-CoV-2 cytopathic effect of O=C(O)CCCCC(CCSCc1ccccc1)SCc1ccccc1 (stereo not drawn)
1.25

For `Cn1cc(-c2ccc3c(c2)CCN3C(=O)Cc2cccc(C(F)(F)F)c2)c2c(N)ncnc21` , write its inhibition of SARS-CoV-2 cytopathic effect.
0.06

Please look at this compound and report its inhibition of SARS-CoV-2 cytopathic effect: `N#CC1(c2ccc(NC(=O)c3cccnc3NCc3ccncc3)cc2)CCCC1`
1.27

Quick one: give measured inhibition of SARS-CoV-2 cytopathic effect for `CC1(C)OC[C@@H](COC(=O)CCc2ccc(OC[C@@H](O)CNCCNC(=O)N3CCOCC3)cc2)O1`
-7.81

Please report inhibition of SARS-CoV-2 cytopathic effect for the following compound: `c1ccc(C(NCCNC(c2ccccc2)c2ccccc2)c2ccccc2)cc1`
-3.48

Supply inhibition of SARS-CoV-2 cytopathic effect value. Item: CC(=O)CC(c1ccccc1)c1c(O)c2ccccc2oc1=O (stereo not drawn)
-10.1
